Target System: human GLP-1 receptor (human, UniProt P43220 24-463)
Method Notes: cell-based or functional assay
Note to self: values exactly at 0.5 are t. So hGLPIR cAMP EC50 ratio at or above 0.5 is t, below is f.

# example entries with known answers
| Binder | Class Name |
| --- | --- |
| YXEGTFTSDYSIXLDSKAQXAFIEYLIEGG (Aib2; αMeL13; K17((2-[2-(2-Amino-ethoxy)-ethoxy]-acetyl)2-(γGlu)-CO-(CH2)18-CO2H); Aib20; C-terminal NH2) [Peptide 64] | f |
| YXXGTFTSDYSILLDKKAQXAFIEYLIEGGPSSGAPPPS (Aib2; Aad3; K17((2-[2-(2-Amino-ethoxy)-ethoxy]-acetyl)2-(γGlu)-CO-(CH2)18-CO2H); Aib20; C-terminal NH2) [Peptide 89] | f |
| YXEGTFTSDYSIXLDKKAQXAFIEYLIEGG (Aib2; αMeL13; K17((2-[2-(2-Amino-ethoxy)-ethoxy]-acetyl)2-(γGlu)-CO-(CH2)18-CO2H); Aib20; C-terminal NH2) [Peptide 62] | f |
| YXEGTXTSDYSIXLDEKAQXEFIEXLIEGGPSSGAPPPS (Aib2; αMeF(2F)6; αMeL13; K17((2-[2-(2-Amino-ethoxy)-ethoxy]-acetyl)2-(γGlu)-CO-(CH2)18-CO2H); Aib20; αMeY25; C-terminal NH2) [Peptide 223] | t |
| YXEGTXTSDXSIXLDXKAQXEFIXYLIEGGPSSGAPPPS (not fully specified; Aib2; αMeF(2F)6; 4Pal10; αMeL13; Dab16; K17((2-[2-(2-Amino-ethoxy)-ethoxy]-acetyl)2-(γGlu)-CO-(CH2)16-CO2H); Aib20; D-Glu24; C-terminal NH2) [Peptide 233] | t |

Problem: Tell me whether hGLPIR cAMP EC50 ratio is at least 0.5 here: YXEGTXTSDXSIXLDEKAQXEFIXYLIEGGPSSGAPPPS (Aib2; αMeF(2F)6; 4Pal10; αMeL13; K17((2-[2-(2-Amino-ethoxy)-ethoxy]-acetyl)2-(γGlu)-CO-(CH2)18-CO2H); Aib20; Aib24; C-terminal NH2) [Peptide 189]
Result: t

Problem: Tell me whether hGLPIR cAMP EC50 ratio is at least 0.5 here: YXEGTXTSDYSIXLDEKAQXEFIEYLIEGGPSSGAPPPS (Aib2; αMeF(2F)6; αMeL13; K17((2-[2-(2-Amino-ethoxy)-ethoxy]-acetyl)2-(γGlu)-CO-(CH2)18-CO2H); Aib20; C-terminal NH2) [Peptide 118]
Result: t

Problem: Tell me whether hGLPIR cAMP EC50 ratio is at least 0.5 here: YXEGTXTSDXSIXLDXKAQXEFIXXLIEGGPSSGAPPPS (Aib2; αMeF(2F)6; 4Pal10; αMeL13; Orn16; K17((2-[2-(2-Amino-ethoxy)-ethoxy]-acetyl)2-(γGlu)-CO-(CH2)16-CO2H); Aib20; D-Glu24; αMeY25; C-terminal NH2) [Peptide 4]
Result: t

Values compiled from patent US20230293638A1.
